Every entry's value here was drawn from patent US7598417B2.

# subject_of_test: alpha2B receptor (Homo sapiens)
# Construct: expressed in transfected cells; host or cells: NIH-3T3
# Sequence (P18089 1-450): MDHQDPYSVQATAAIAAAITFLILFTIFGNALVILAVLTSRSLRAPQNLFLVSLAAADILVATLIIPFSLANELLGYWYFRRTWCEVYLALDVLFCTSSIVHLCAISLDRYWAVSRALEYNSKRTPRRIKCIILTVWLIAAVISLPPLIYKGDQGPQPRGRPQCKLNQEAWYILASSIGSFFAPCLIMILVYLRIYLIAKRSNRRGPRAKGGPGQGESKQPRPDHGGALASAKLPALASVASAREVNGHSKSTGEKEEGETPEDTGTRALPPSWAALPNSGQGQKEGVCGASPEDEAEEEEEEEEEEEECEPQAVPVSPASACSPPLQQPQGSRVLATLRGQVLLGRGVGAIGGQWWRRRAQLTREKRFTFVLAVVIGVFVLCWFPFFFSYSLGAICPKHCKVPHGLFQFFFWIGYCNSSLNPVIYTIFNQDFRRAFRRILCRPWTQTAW
# experimental_protocol: Receptor Selection and Amplification Technology (RSAT) assay, alpha2B
# Type: cell-based
# test_settings: ratio of maximal effect of the drug to maximal effect of standard full agonist brimonidine (UK14304)
Rule for this label: T means Alpha 2B IA (intrinsic activity) is less than 1; F means Alpha 2B IA (intrinsic activity) is at least 1.

INSERT INTO results (compound, subject_of_test, class_assignment) VALUES
  ('O=C(NCCF)NC1CCc2ncccc21 (stereo not shown)', 'alpha2B receptor (Homo sapiens)', 'F'),
  ('O=C(NCCF)NC1CCCCc2ccccc21 (stereo not shown)', 'alpha2B receptor (Homo sapiens)', 'T'),
  ('Cc1cccc2c1CCC2NC(=O)NCCF (stereo not shown)', 'alpha2B receptor (Homo sapiens)', 'F'),
  ('CC1=CC(NC(=O)NCCF)CC1 (stereo not shown)', 'alpha2B receptor (Homo sapiens)', 'T'),
  ('CC1=CC(NC(=O)NCCF)CCC1 (stereo not shown)', 'alpha2B receptor (Homo sapiens)', 'T'),
  ('CC1=CCCCC1NC(=O)NCCF (stereo not shown)', 'alpha2B receptor (Homo sapiens)', 'T'),
  ('Cc1cccc2c1CCCC2NC(=O)NCCF (stereo not shown)', 'alpha2B receptor (Homo sapiens)', 'F'),
  ('Cc1cccc2c1C(NC(=O)NCCF)CC2 (stereo not shown)', 'alpha2B receptor (Homo sapiens)', 'T'),
  ('COc1cccc2c1CC(NC(=O)NCCF)C2 (stereo not shown)', 'alpha2B receptor (Homo sapiens)', 'F'),
  ('O=C(NCCF)NC1CCc2c(F)cccc21 (stereo not shown)', 'alpha2B receptor (Homo sapiens)', 'F'),
  ('CCC1=C(C)C(NC(=O)NCCF)CC1 (stereo not shown)', 'alpha2B receptor (Homo sapiens)', 'T'),
  ('CC1CC(NC(=O)NCCF)c2ccccc21 (stereo not shown)', 'alpha2B receptor (Homo sapiens)', 'T');

---

# subject_of_test: alpha2B receptor (Homo sapiens, UniProt P18089)
# Construct: expressed in transfected cells; host or cells: NIH-3T3
# experimental_protocol: Receptor Selection and Amplification Technology (RSAT) assay, alpha2B
# Type: cell-based
# test_settings: RSAT, NIH-3T3 cells cotransfected with receptor and Gq/i5; not active = not active at concentrations less than 10 micromolar; read-out: Alpha 2B EC50
pEC50: −log10 of the molar value.
experimental_endpoint: pEC50

INSERT INTO measurements (compound, experimental_endpoint, reported) VALUES
  ('O=C(NCCF)NC1C=C(CO)CCC1 (stereo not shown)', 'pEC50', 5.90),
  ('Cc1c(Br)ccc2c1C(NC(=O)NCCF)CC2 (stereo not shown)', 'pEC50', 6.62),
  ('Cc1cccc2c1CCCC2NC(=O)NCCF (stereo not shown)', 'pEC50', 8.25),
  ('COc1ccc2c(c1)C(NC(=O)NCCF)CCC2 (stereo not shown)', 'pEC50', 6.08);
